Origin of measurements: PubChem BioAssay (NCI)

Documented TGI across a set of compounds
- System: U251 CNS
- test-summary: NCI tumour cell line growth inhibition, 48 h

Answered cases to consult:
INSERT INTO assay_data (chem_smiles, reported_value) VALUES
  ('O=C(CSc1nc2ccccc2c(=O)n1-c1ccc(Cl)cc1)Nc1ccc(-c2nc3ccc([N+](=O)[O-])cc3[nH]2)cc1', '3.58 µM'),
  ('N#Cc1c(-c2ccccc2Cl)cc(-c2ccc3ccccc3c2)[nH]c1=O', '38.5 µM'),
  ('COc1cccc2nc(Nc3ccc(F)c(NC(=O)c4ccc(CN5CCN(C)CC5)c(C(F)(F)F)c4)c3)ccc12', '26.1 µM');

Here is the next item to consider.
Recorded result, `Cc1cc(C)cc(Oc2cccc(-c3c(C)nnn3C3CCN(CCN(C)C)CC3)n2)c1` , TGI: 15.3 µM
